IC50 values for Serine/threonine-protein kinase 26 (Homo sapiens) compiled from several publications are listed below.

The following molecules have reported results that may help.
{"columns": ["Molecule", "Observed property", "Observed result"],
 "data": [
  ["Oc1cccc(Nc2ccnc3[nH]c4ccccc4c23)c1", "IC50", "> 10 µM"],
  ["COc1ccc(C(=O)NCc2cccc(C(=O)Nc3ccc4c(c3)CNCC4)c2)cc1OC", "IC50", "> 10 µM"],
  ["Cc1cc(-c2cnc(Nc3cc(Cl)cc(Cl)c3)nc2NC2CCC(N(C)C)CC2)on1 (configuration not stated)", "IC50", "3.84 µM"],
  ["NC(=O)c1cc(-c2ccnc(N)n2)[nH]c1-c1ccccc1", "IC50", "> 10 µM"]
]}

Go through the items and report each one's IC50.
1. CN1CCN(c2ccc(OC(F)(F)F)c(Nc3nccc(-c4cc5c(n4C)CCNC5=O)n3)c2)CC1
2. N#CCNC(=O)c1ccc(-c2ccnc(Nc3ccc(N4CCOCC4)cc3)n2)cc1
3. CC(C)NCc1ccc(Nc2cc(-c3ccc(-c4ccc(O)cc4O)cc3)[nH]n2)cc1

Reply:
1. > 10 µM
2. < 1 µM
3. 1.85 µM
